target-system: Cdc7/ASK (Homo sapiens)
Sequence (O00311 whole entry): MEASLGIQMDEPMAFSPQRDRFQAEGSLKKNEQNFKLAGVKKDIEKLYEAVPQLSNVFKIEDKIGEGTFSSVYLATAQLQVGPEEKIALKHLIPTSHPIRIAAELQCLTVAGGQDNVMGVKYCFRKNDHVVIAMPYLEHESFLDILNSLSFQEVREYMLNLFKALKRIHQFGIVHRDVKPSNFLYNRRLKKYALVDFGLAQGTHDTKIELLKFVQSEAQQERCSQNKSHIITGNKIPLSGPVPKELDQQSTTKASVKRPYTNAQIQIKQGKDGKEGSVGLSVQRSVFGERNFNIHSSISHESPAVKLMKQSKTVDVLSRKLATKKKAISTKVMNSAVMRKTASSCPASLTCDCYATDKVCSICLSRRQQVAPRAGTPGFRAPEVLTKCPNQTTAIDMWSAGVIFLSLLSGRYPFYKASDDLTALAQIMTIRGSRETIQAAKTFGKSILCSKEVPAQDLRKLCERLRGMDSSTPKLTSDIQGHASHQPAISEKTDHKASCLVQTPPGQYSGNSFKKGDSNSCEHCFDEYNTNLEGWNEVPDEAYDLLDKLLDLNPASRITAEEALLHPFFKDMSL
Sequence (Q9UBU7 whole entry partner): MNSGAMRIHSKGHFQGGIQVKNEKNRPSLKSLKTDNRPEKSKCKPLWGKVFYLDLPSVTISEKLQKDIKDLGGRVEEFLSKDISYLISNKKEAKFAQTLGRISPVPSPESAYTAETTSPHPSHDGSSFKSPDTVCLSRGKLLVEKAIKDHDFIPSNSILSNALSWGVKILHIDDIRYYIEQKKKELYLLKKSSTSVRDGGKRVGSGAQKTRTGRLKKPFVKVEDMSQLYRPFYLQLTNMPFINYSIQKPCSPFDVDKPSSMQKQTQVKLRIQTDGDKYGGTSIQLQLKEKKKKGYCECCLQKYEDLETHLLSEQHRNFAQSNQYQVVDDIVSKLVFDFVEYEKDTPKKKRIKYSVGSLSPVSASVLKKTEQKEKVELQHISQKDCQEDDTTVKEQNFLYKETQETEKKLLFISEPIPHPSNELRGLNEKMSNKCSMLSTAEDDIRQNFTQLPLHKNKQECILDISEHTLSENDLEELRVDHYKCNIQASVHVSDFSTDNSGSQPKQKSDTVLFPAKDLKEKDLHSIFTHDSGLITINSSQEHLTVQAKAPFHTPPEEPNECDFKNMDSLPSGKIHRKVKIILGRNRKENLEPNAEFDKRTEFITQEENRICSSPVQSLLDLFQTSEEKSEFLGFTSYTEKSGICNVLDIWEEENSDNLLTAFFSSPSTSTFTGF
procedure-summary: Cdc7 biochemical assay Method 1: 384 well ELISA, MCM2 whole protein substrate, Phospho MCM2 (S53) antibody
Set-up: purchased
protocol-conditions: ATP 2 μM, 90 minutes, read-out: Biochemical method 1 (pIC50) (converted)
Experimental: This protocol describes a method for assaying Cdc7/ASK for activity. The assay is a 384 well ELISA assay, utilising a whole protein substrate (MCM2) and an antibody against Phospho MCM2 (S53). This site is thought to be specific to Cdc7/ASK phosphorylation and the assay has been validated using knockout mutants. • TBS: 25 mM Tris pH 7.2, 150 mM NaCl. […] Stop the reaction by adding 20 μL Stop Solution to all wells and record Absorbance on a Pherastar plate reader. […]
endpoint-name: IC50 (nM)

> print(dat)
                              smiles.record  readout.number
1  Cc1ncsc1-c1nc(N2CCC(O)CC2)c(Cl)c(=O)[nH]1            3.16
2    Cc1ncsc1-c1nc(C2CCOCC2)c(Cl)c(=O)[nH]1             3.8
3  Cc1ncsc1-c1nc(C2CCN(C(=O)c3ccnnc3)CC2)c(Cl)c(=O)[nH]1            1.66
4  Cc1[nH]ncc1-c1nc(C2CCOCC2)c(Cl)c(=O)[nH]1            2.75
5     Cc1ncsc1-c1nc(C2CCOCC2)c(I)c(=O)[nH]1             245

[A] Cc1ncsc1-c1nc(C2CCN(C(=O)c3cc(C)n(C)n3)CC2)c(Cl)c(=O)[nH]1
[B] CCc1[nH]ncc1-c1nc(C2CCOCC2)c(Cl)c(=O)[nH]1
[C] Cc1ncsc1-c1nc(N2CCN[C@@H](C(C)C)C2)c(Cl)c(=O)[nH]1
q: Order the records, beginning with the lowest IC50 and ending with the highest. Show the ranking through the labels, in the order asked for.
a: A, C, B
